Each entry below lists one item and its recorded SPOT peptide array binding signal intensity value.
biological target: AgBzz1-D2; test: SPOT peptide array binding signal intensity (averaged, normalized) (arbitrary units (background-subtracted, floor 0; scale differs between SH3 domains)); higher = stronger binding of the SH3 domain to the peptide
The response must contain the number and no unit.

Recorded SPOT peptide array binding signal intensity, per entry:
# binder, numeric_value
measured = [
    ("IRMPSNPALPKKLLN", 10),
    ("IPSRPAPKPPSSASA", 19),
    ("TEVPIPRRPPPPQAA", 7.5),
]

Would you kindly look at the next entry?
Q: Name the recorded SPOT peptide array binding signal intensity of the item LFMKGTPEFPKSGFS in your answer.
Ans: 7

Origin of the recorded values: the supplement of paper PMC4466140
